tested_system: IDH2 R172K (Homo sapiens, UniProt P48735, R172K)
Sequence (P48735 40-452 R172K): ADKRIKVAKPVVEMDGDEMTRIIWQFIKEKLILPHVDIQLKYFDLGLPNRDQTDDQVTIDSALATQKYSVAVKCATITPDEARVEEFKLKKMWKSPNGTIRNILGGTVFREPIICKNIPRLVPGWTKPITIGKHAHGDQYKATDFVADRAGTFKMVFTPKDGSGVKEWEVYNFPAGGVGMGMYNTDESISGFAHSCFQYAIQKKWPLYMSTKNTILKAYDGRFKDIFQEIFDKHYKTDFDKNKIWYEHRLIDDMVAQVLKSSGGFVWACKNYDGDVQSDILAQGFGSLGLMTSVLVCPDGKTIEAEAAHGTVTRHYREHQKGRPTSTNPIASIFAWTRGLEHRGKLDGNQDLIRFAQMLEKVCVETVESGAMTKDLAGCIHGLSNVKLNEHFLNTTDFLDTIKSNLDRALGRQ
experiment_summary: IDH2 R172K enzymatic assay (NADPH cofactor depletion, diaphorase/resazurin readout)
condition: read-out: Enz R172K
Procedure: Compounds are assayed for IDH2 R172K inhibitory activity through a cofactor depletion assay. […] The reaction is terminated by the addition of a second enzyme, diaphorase, and a corresponding substrate, resazurin. […]
experimental_endpoint: IC50

Worked cases, answers included:
molecule	IC50
CCC(C)CNc1nc(Nc2ccncc2)nc(-c2ccccc2)n1 (stereo not shown)	100 to 1000 nM
CC(C)Nc1nc(Nc2cccc(Cl)c2)nc(-c2ccccc2)n1	< 100 nM
CC(C)C(CO)Nc1nc(Nc2ccccc2)nc(-c2ccccc2)n1 (stereo not shown)	1000 to 10000 nM
CC(C)Nc1nc(Nc2ccc(Cl)cc2)nc(-c2ccccc2)n1	100 to 1000 nM
FC(F)(F)c1cc(Nc2nc(Nc3cncs3)nc(-c3cccc(C(F)(F)F)n3)n2)ccn1	100 to 1000 nM
CC(C)(C)Nc1nc(Nc2cc(F)cc(S(C)(=O)=O)c2)nc(-c2cccc(O)c2)n1	< 100 nM
Nc1cccc(-c2nc(NCC3CC3)nc(Nc3cc(F)cc(F)c3)n2)n1	< 100 nM
CC(C)Nc1nc(Nc2ccnc(C3CC3)c2)nc(-c2cccc(C(F)(F)F)n2)n1	< 100 nM

Required: IC50, one value per molecule below.
1. CC(C)(CO)CNc1nc(Nc2ccncc2)nc(-c2ccccc2)n1
2. Fc1cncc(Nc2nc(NC3[C@H]4COC[C@@H]34)nc(-c3ccccc3F)n2)c1 (stereo partly shown)

Outgoing:
1: > 10000 nM; 2: 100 to 1000 nM
